All figures here come from ChEMBL document CHEMBL1156283.

# Species: Homo sapiens
# EXPERIMENT NOTES: Selectivity ratio of IC50 for PI3Kalpha to IC50 for mTOR
ASSAY ENDPOINT: Ratio IC50

A selection of reference data follows.
COMPOUND | Ratio IC50
CN1CCN(C(=O)c2ccc(-c3ccnc4c3c(/C=C3\Oc5cccc(O)c5C3=O)cn4C)cc2)CC1 | 70
Cn1cc(/C=C2\Oc3cccc(O)c3C2=O)c2c(-c3ccc(C(=O)N4CCN(CCO)CC4)cc3)ccnc21 | 256
Cn1cc(/C=C2\Oc3cccc(O)c3C2=O)c2c(-c3ccc(C(=O)N4CCOCC4)cc3)ccnc21 | 97

P: Cn1cc(/C=C2\Oc3cccc(O)c3C2=O)c2c(N3CC4CCC(C3)O4)ccnc21
Q: Cn1cc(/C=C2\Oc3cccc(O)c3C2=O)c2c(N3CCOCC3)ccnc21
INPUT: Parameter check: reported Ratio IC50 is higher for which label, P or Q ? Please reply using the label of the selected record.
OUTPUT: P
(P: 274, Q: 24)

----------
# EXPERIMENT NOTES: Half life in mouse microsomes in phase 1 using NADPH as a cofactor
# Format: ADME, Microsome
ASSAY ENDPOINT: half-life (min)

1: Cn1cc(/C=C2\Oc3cccc(O)c3C2=O)c2c(-c3ccc(C(=O)N4CC5CCC(C4)O5)cc3)ccnc21
2: Cn1cc(/C=C2\Oc3cccc(O)c3C2=O)c2c(-c3ccccc3)ccnc21
INPUT: Parameter check: reported half-life is higher for which label, 1 or 2 ? Please reply using the label of the selected record.
OUTPUT: 2

----------
# half-life per entry
# EXPERIMENT NOTES: Half life in mouse microsomes in phase 1/2 using NADPH and UDPGA as a cofacto
# Type: ADME, Microsome

COMPOUND | half-life
CN1CCN(C(=O)C2CCN(c3ccnc4c3c(/C=C3\Oc5cccc(O)c5C3=O)cn4C)CC2)CC1 | > 30 min
Cn1cc(/C=C2\Oc3cccc(O)c3C2=O)c2c(N3CCC(C(=O)N4CCOCC4)CC3)ccnc21 | > 30 min

Proceeding to the next compound to report its half-life.
INPUT: Which measured half-life value corresponds to Cn1cc(/C=C2\Oc3cccc(O)c3C2=O)c2c(-c3ccc(C(=O)N4CCN(CCO)CC4)cc3)ccnc21 ?
OUTPUT: > 30 min

----------
# Species on record: Homo sapiens
# EXPERIMENT NOTES: Selectivity ratio of IC50 for PI3Kalpha to IC50 for mTOR
ASSAY ENDPOINT: Ratio IC50

COMPOUND | Ratio IC50
CN(C)C(=O)c1ccccc1-c1ccnc2c1c(/C=C1\Oc3cccc(O)c3C1=O)cn2C | 32.8

1: CN(C)C(=O)c1ccc(-c2ccnc3c2c(/C=C2\Oc4cccc(O)c4C2=O)cn3C)cc1
2: Cn1cc(/C=C2\Oc3cccc(O)c3C2=O)c2c(N3CCC(CN)CC3)ccnc21
3: Cn1cc(/C=C2\Oc3cccc(O)c3C2=O)c2c(N3CCC(C(=O)N4CC5CCC(C4)O5)CC3)ccnc21
INPUT: Endpoint returns the given molecules ordered by ascending Ratio IC50. Hello, could you send the labels back in the order asked? Thank you.
OUTPUT: 2, 3, 1
(2: 9, 3: 26, 1: 65)
